assay-overview: Pharmacokinetics in rats after I.V. injection or oral administration, plasma drug concentration quantified by HPLC
particulars: Lewis, rat, plasma, po, 12 mg/kg
assay-readout: AUC (ng·h/mL)

>>> experimental_result("Nc1ccn([C@@H]2O[C@H](CO)[C@@H](O)C2(F)F)c(=O)n1")
23400

---

assay-overview: in vivo
particulars: Lewis, rat, iv, 12 mg/kg
assay-readout: Cmax (ng/mL)

>>> experimental_result("CC(=O)O[C@H]1C(=O)[C@@]2(C)[C@H]([C@H](OC(=O)c3ccccc3)[C@]3(O)C[C@H](OC(=O)[C@H](O)[C@@H](NC(=O)c4ccccc4)c4ccccc4)C(C)=C1C3(C)C)[C@]1(OC(C)=O)CO[C@@H]1C[C@@H]2O")
20000

---

assay-overview: in vivo
particulars: Lewis, rat, po, 12 mg/kg
assay-readout: AUC (ng·h/mL)

>>> experimental_result("CC(=O)O[C@H]1C(=O)[C@@]2(C)[C@H]([C@H](OC(=O)c3ccccc3)[C@]3(O)C[C@H](OC(=O)[C@H](O)[C@@H](NC(=O)c4ccccc4)c4ccccc4)C(C)=C1C3(C)C)[C@]1(OC(C)=O)CO[C@@H]1C[C@@H]2O [PTX, paclitaxel]")
7250

---

assay-overview: in vivo
particulars: Lewis, rat, 12 mg/kg
assay-readout: bioavailability (%)

>>> experimental_result("CC(=O)O[C@H]1C(=O)[C@@]2(C)[C@H]([C@H](OC(=O)c3ccccc3)[C@]3(O)C[C@H](OC(=O)[C@H](O)[C@@H](NC(=O)c4ccccc4)c4ccccc4)C(C)=C1C3(C)C)[C@]1(OC(C)=O)CO[C@@H]1C[C@@H]2O [PTX, paclitaxel]")
59.2

---

assay-overview: Pharmacokinetics in rats after I.V. injection or oral administration, plasma drug concentration quantified by HPLC
particulars: Lewis, rat, plasma, iv, 12 mg/kg
assay-readout: half-life (h)

>>> experimental_result("Nc1ccn([C@@H]2O[C@H](CO)[C@@H](O)C2(F)F)c(=O)n1")
2.36
